# System: K4 kissing-loop RNA reporter;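 note: bound reporter read as fluorescence of individual clusters on recovered sequencing chips by microscopy, with normalized cluster intensities fitted with a binding model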
# run description: apparent KD of K4 kissing-loop reporter; higher = weaker reporter binding
# study conditions: Eterna round: R107; input ligand: tryptophan 2.4 mM
metric: apparent KD of K4 kissing-loop reporter

Use these answered entries as a reference point.
CGGUACGUCGCAGGAUAUGGAUUCUGGAGUGAUGUUUCAGAGGCAUGCGGAAAACGCAUGCCGACUCCAGAAGGGCGACGUACCG
376 nM
UCACAAGUUAACUAGUGAUGUUAGUUAGUACGAGGACCGGUACGGCCGCCACUCGAAAAGUGGUUUUACGGACUUUUGGGCAGGC [theeternabot_sameState_KL_Trp_A_17]
260 nM
GGUAGCAUGGCGGCCGCCACUAAGAGAGUGAUGUUCUCUUAGUUUUUUGAUAUAUUAUCAAUUCUUAGGACCGGGCCAUGCUACC
100 nM
AUUUAAUUAACUGAUACCAGACUUUUUGUUUUGUAUAUUACUAGUGAUGUUAGUGUUUCUGUCCCUUGGCAGCAGUAUCUACUUA [JR_ExcTheophyB_Sub016]
157 nM
AAGCAGUCCCUUGUUGUCAUCGAAGAUGAACGAGGACCGGUACGGCCGCCACUCGGAGUGAUGUUCCGAAGGCUGCAAAAUAAAA [MatMod 20 - Jieux - Exclusion - Tryptophan A]
205 nM

Please look at the following sequence next.
Q: Item GCAGACACGCAGUGAUGUUGCGAAACGGAAGGAGCGCGUGAAAACGCAGGUAGGUCGCCGACACAUAAAUUAUAAUUUUGUUUGC [Arginine A K4 14] with K4 kissing-loop RNA reporter - apparent KD of K4 kissing-loop reporter?
A: 205 nM

* * *

# System: MS2 coat protein
# run description: apparent KD of MS2 coat protein; designed switch direction (-1 OFF switch, 1 ON switch): -1; higher = weaker reporter binding
# study conditions: input ligand: FMN 200 uM
metric: apparent KD of MS2 coat protein (nM)
Give bare numbers, in nM.

AAUAAAGGCCGAGGAUAUCGGAAAGGAAGUGUACGAGAAGGUGGCAAAAGAACAUGAGGAUCACCCAUGUGGGCCGAUCUUCCG [PowerStrip EXNG 1.4] (Eterna round: R96, puzzle: Exclusion NG 1)
33.3
GUCAGCUCGUCAGGAUAUACAUGCGUGCUUCGGCACGAAUUUAAGAUCACAUGAGGAUCACCCAUGUAGAAGGGACGAGCUGAU [ENG2/3-B2] (Eterna round: R96, puzzle: Exclusion NG 2)
819
GUUGUGUAAGGAUAUGCCUGGCCGUGAGGCCAGAUUGAAUAGCAGAAGGUACAUGAGGAUCACCCAUGUACGGG [salish99_ex4_4_001] (Eterna round: R97, puzzle: Exclusion 4)
109
AACCUGAGGCUUUGCUUUAGGUUUACAUGAGGAUCACCCAUGUAGGAUAUGGUAGGCAUAGCUUACCAGAAGGACAUGAAAAUU [Mat - Exclusion NG 3 - Mod of JL - D29] (Eterna round: R96, puzzle: Exclusion NG 3)
293
AAAAGCGUCACAGGAUAUUCAGGCGACGCCAAAGAAGAAGGGUGAGGCACAAACAUGAGGAUCACCCAUGUGGUCCUCUCCCGA [Vebiquti] (Eterna round: R96, puzzle: Exclusion NG 1)
19.2
UUAUUGUAUGUAGGAUAUGCGUAUUAUUGUUAUGCAGAAGGACAUGAGGAUCACCCAUGUAUAUUAUUGUUAUAUAUUAUAUAU [Title] (Eterna round: R96, puzzle: Exclusion NG 1)
60.9
GAUAUGCGUGUGAGGAUAUUCGACGCGCAAACGGAGAAGAAGGCACAUGAGGAUCACCCAUGUGGAGGGAAGAA [BmEX4 A.13] (Eterna round: R97, puzzle: Brourd's mod of Exclusion 4)
82.8
CGUCAAGCUUCGGCAGGCAACAUGAGGAUCACCCAUGUCUGCGUUCGUCUUAACUGAUCUAGGGAUAGAUCGUGUGU [Eternabot (L1) Solution 49] (Eterna round: R97, puzzle: Sensor, turn-off variant 1)
18.3

Please look at the following sequence next.
Q: Give its apparent KD of MS2 coat protein value. Item: GCAUGCUGAGUUAGGAUAUGCUAGCGUUGCCGCUAGCAGAAGGAACAUGAGGAUCACCCAUGUUAGCAUGCAGU [eternacac ex4r4 #2] (Eterna round: R97, puzzle: Brourd's mod of Exclusion 4)
A: 16

* * *

# Tested on: MS2 coat protein
# run description: apparent KD of MS2 coat protein; designed switch direction (-1 OFF switch, 1 ON switch): 1; higher = weaker reporter binding
# study conditions: input ligand: none
Give apparent KD of MS2 coat protein for every item shown.
Give bare numbers, in nM.

Use these answered entries as a reference point.
GUGGUCAGACAUGAGGAUCACCCAUGUGGAAUAAAUAAGGAAAAGGAUAUCUAAUAUAGGAUAUAAGAGAAGGUUUGGUUGGUG (Eterna round: R96, puzzle: Same State NG 3)
64.7
UAUUUAAUCGUAGGAUAUAGAAUGAAAUUUGUACUAGAAGGACGUUACAUGAGGAUCACCCAUGUGGUAAGUGGGACAUAGAUU [JR_SSNG1_Sub035] (Eterna round: R96, puzzle: Same State NG 1)
121
GGAACACAUGAGGAUCACCCAUGUCAAGGAGGUCGAGGAUAUAGGAAAAAAAAAAAAAAAUUAGAAGGUGAGGAGG [V1] (Eterna round: R96, puzzle: Same State 1)
275
UUGAAGAAUUAAGGAUAUUGAUUACAUAUGUAUAACAUGAGGAUCACCCAUGUGGGUUGCGGUAUCGAGAAGGUAAAUUACUAG [Mat - same State NG 2 - JL mod - D75] (Eterna round: R96, puzzle: Same State NG 2)
98.2
UGGUACAUGGGAGGAUAUCCUCAGGAGACAUGAGGAUCACCCAUGUAAUUUAAGCCGAAAGGCAUGGAGAAGGCCCAUGUACCU [JL SSNG1 3.80] (Eterna round: R96, puzzle: Same State NG 2)
129
UGGUAACAUGAGGAUCACCCAUGUCAAAUGAAUCGAGGAUAUGGGAAUUAACAACACAAACUAGAAGGCGAAUUUG [Altered State 1-8 - Jieux - Same State 1] (Eterna round: R96, puzzle: Same State 1)
314

State the recorded apparent KD of MS2 coat protein for every item in the following list.
1. GCUAGAAUAAAUGCUAACAUGAGGAUCACCCAUGUAUGUUGGCAGGAUAUCGUAUGCAAAGCAUACGAGAAGGGCCAUACUAGC [Mat - Same State NG 3 - JL Mod - D27] (Eterna round: R96, puzzle: Same State NG 3)
2. UUAAUGAUGUAAGGAUAUACAUGAGGAUUUCUCGUAGAAGGUACAAGACAUGAGGAUCACCCAUGUGUCGCUCAAUAGAGCGUA [Mat - Same State NG 1 - JL mod - D19] (Eterna round: R96, puzzle: Same State NG 1)
3. AACAGUCGGCGAGGAUAUGGACGGACAGGCUUGCCUGUGCGGCUCACAUGAGGAUCACCCAUGUUCUAGAAGGCGCCACUGAGA [Atteve] (Eterna round: R96, puzzle: Same State NG 2)
4. CUGAGCGAUCGAGGAUAUCACGUCGUUUAGACGUGAGAAGGCGAUCAUAACAUGAGGAUCACCCAUGUAUUACAUGAAGCUCAG [SSNG1/4-A3] (Eterna round: R96, puzzle: Same State NG 1)
5. GGUGGGUUACUACCAACACAUGAGGAUCACCCAUGUUUUGGGAAGGAUAUGGUACCUAUUUGGUACCAGAAGGUCCUGUUGGUG [salish99_SSNG3_r04_706] (Eterna round: R96, puzzle: Same State NG 3)
6. GGAGCCAAGGCAGGAUAUUCAAAACAUGAGGAUCACCCAUGUGGGUAAAAGGCCAGAAGGCCUUGGGAGAAGGGCCAUGGCUCG [Xeonanis - 13 mod12] (Eterna round: R96, puzzle: Same State NG 2)

A:
1: 29.5; 2: 292; 3: 81.7; 4: 19.2; 5: 116; 6: 15.8

State the recorded apparent KD of MS2 coat protein for every item in the following list.
1. UUGUUUUGAAAUUUACAUGAGGAUCACCCAUGUCGUGAGACAGAGGAUAUACAGGAAUGUAGGUAGUAGAAGGCUGUUUUGUGU [JR_SSNG3_Sub100] (Eterna round: R96, puzzle: Same State NG 3)
2. GAGUAGUUGGGAGGAUAUCGAUUGUUAUAGAAUCGAGAAGGUCCUAACAUGAGGAUCACCCAUGUAGGACUAUUCCUGUGUAUC [Parity 75 - Jieux - Same State NG 1] (Eterna round: R96, puzzle: Same State NG 1)
3. UGAACCGUCACAGGAUAUCAUGCGAAAAUUGCGUGAGAAGGGUGGAUGUUGUGCUCAAAGUUAUACAUGAGGAUCACCCAUGUU [SameState NG1 #45] (Eterna round: R96, puzzle: Same State NG 1)

A:
1: 123; 2: 10.6; 3: 285

State the recorded apparent KD of MS2 coat protein for every item in the following list.
1. GCGAGCGUACUUGCUACAUGAGGAUCACCCAUGUUAACUGGACAGGAUAUGGUACCGUUUCGGUACCAGAAGGGUUCAUCAUGU [JL SSNG3 3.68] (Eterna round: R96, puzzle: Same State NG 3)
2. UGAAUGGUGAUAGGAUAUACAUGAGGAAUCCUCGUAGAAGGAUCACGACAUGAGGAUCACCCAUGUAGCCGUCCGUAGACGGCG [salish99_SSNG1_r04_001] (Eterna round: R96, puzzle: Same State NG 1)
3. UUGAUGAAUUAAGGAUAUCGAGUCGUCUAAUUAAACAUGAGGAUCACCCAUGUGGGUUGUGGUAUCGAGAAGGUAAAUUACUUA [JR_SSNG2_Sub098] (Eterna round: R96, puzzle: Same State NG 2)

A:
665
238
92.6

Entry source: the supplement of paper PMC9170038
